Target: human renin (Homo sapiens)
Sequence (P00797 67-406): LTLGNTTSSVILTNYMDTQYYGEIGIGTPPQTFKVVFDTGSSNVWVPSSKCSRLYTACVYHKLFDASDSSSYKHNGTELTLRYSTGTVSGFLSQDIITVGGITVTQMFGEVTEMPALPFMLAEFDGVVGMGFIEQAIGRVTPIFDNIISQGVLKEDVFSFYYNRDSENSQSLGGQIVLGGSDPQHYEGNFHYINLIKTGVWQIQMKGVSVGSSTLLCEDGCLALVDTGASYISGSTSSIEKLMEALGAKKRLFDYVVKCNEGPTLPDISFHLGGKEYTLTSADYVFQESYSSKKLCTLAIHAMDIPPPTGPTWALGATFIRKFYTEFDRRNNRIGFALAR
Assay: Determination of renin IC50 by tGFP FRET assay
Type: biochemical
Conditions: Human recombinant renin, tandem GFP substrate 650 nM, 60 min incubation with compound, pH 7.4, 11-point curve
EXPERIMENTAL READOUT: IC50 (nM)
# unit: nM | format: bare number

Q: Which IC50 value is on record for `COc1ccccc1COCCCOc1ccc(N2C(=O)CNC[C@@H]2COc2ccc3ncccc3c2)cc1` ?
Result: 3450

Q: For `CCOC(=O)CN1C(=O)COc2ccc(SC[C@H]3CNCC(=O)N3c3ccc(OCCCOCc4ccccc4OC)cc3)cc21` , what is its reported IC50?
Result: 0.17

Q: Can you look up the measured IC50 of `COc1ccccc1COCCCOc1ccc(N2C(=O)CNC[C@@H]2COc2ccc3ccccc3c2)cc1C` for me?
Result: 167

Q: Look up IC50 for this molecule: `COc1ccc(COC[C@H]2CNCCN2c2ccc(OCCCOCc3cccc(OC)c3)cc2)cc1`
Result: 15600

Q: Query: IC50; subject: `COC(=O)Cn1ccc2cc(OC[C@@H]3CNCC(=O)N3c3ccc(OCCCOCc4ccccc4OC)cc3)ccc21`
Result: 10

Q: Item under review: `COc1ccccc1COCCCOc1ccc(N2C(=O)CNC[C@@H]2COc2ccc3ccccc3c2)cc1OC` . Reported IC50?
Result: 537

Q: Form field: reported IC50 of `COc1ccccc1COCCCOc1ccc(N2C(=O)CNC[C@@H]2COc2ccc3cccnc3c2)cc1`
Result: 822

Q: Fill blank: measured IC50 of the molecule `COc1ccccc1COCCCOc1ccc(N2C(=O)CNC[C@@H]2COCc2ccc(C(F)(F)F)cc2)cc1` is ____.
Result: 68

Q: If you can, please state the reported IC50 value of `COc1ccccc1COCCCOc1ccc(N2C(=O)CNC[C@@H]2COCc2cccc(Cl)c2)cc1` .
Result: 325

Q: Quick check: IC50 of `COCCCN1CCCc2ccc(OC[C@H]3CNCC(=O)N3c3ccc(OCCCOCc4ccccc4OC)cc3)cc21` ?
Result: 3.17

Q: What does the record list as IC50 for `COC(=O)CN1CCCc2ccc(OC[C@H]3CNCC(=O)N3c3ccc(OCCCOCc4ccccc4OC)cc3)cc21` ?
Result: 4.09

Q: Which measured IC50 value corresponds to `COc1ccccc1COCCCOc1ccc(N2C(=O)CNC[C@@H]2COc2cccc(-c3ccccc3)c2)cc1` ?
Result: 1510

Q: Dear colleague, I am looking for the recorded IC50 of the following molecule: `Fc1ccccc1COCCCOc1ccc(N2CCNC[C@@H]2COc2ccc3ccccc3c2)cc1`
Result: 597

Q: GET /values?readout=IC50&item= `COc1ccccc1COCCCOc1ccc(N2C(=O)CNC[C@@H]2COCc2ccc(Cl)cc2)cc1`
Result: 295

Q: Returns the measured IC50 for the input molecule. Input: `COc1ccc(COC[C@H]2CNCCN2c2ccc(OCCCOCc3ccc(Cl)c(Cl)c3)cc2)cc1`
Result: 11500

Q: Fill in the blank: the reported IC50 of `COC(=O)CCN1CCc2ccc(OC[C@H]3CNCC(=O)N3c3ccc(OCCCOCc4ccccc4OC)cc3)cc21` is ____.
Result: 9.59

Q: So what does the record say about IC50 for `COc1ccccc1COCCCOc1ccc(N2CCNC[C@@H]2COc2ccc3ccccc3c2)cc1` ?
Result: 153

Q: Endpoint output: IC50 of `COc1ccccc1OCCCCOc1ccc(N2CCNC[C@@H]2COc2ccc3ccccc3c2)cc1` . Value?
Result: 1360

Q: State the recorded IC50 for this entry: `COc1cccc(COC[C@H]2CNCC(=O)N2c2ccc(OCCCOCc3ccccc3OC)cc2)c1`
Result: 612

Q: Which IC50 value belongs to `COc1ccc(COC[C@H]2CNCCN2c2ccc(OCCCOCc3ccccc3Cl)cc2)cc1` ?
Result: 15900

Q: Recorded IC50 for `CCOC(=O)Cn1ccc2ccc(OC[C@H]3CNCC(=O)N3c3ccc(OCCCOCc4ccccc4OC)cc3)cc21` , please?
Result: 6

Q: Entry `COc1ccccc1COCCOCc1ccc(N2CCNC[C@@H]2COc2ccc3ccccc3c2)cc1` : reported IC50 = ?
Result: 2550
